Origin of values: patent US20260263550A1

- protocol-summary: in vivo
- study-conditions: male, cynomolgus monkey, sc, 15 mg/kg/day, Average Concentration, Vitreous Humor
outcome-measure: concentration at 42 day (ng/mL)
// return numeric value only (unit: ng/mL, not printed)

Notebook: `Cc1cc(O)cc(C)c1C[C@H](NC(=O)[C@H](N)CCCNC(=N)N)C(=O)N[C@@H](CCCCN)c1nc(Cc2ccccc2)no1.Cl.Cl.Cl` , concentration at 42 day read as 45.3

###

- protocol-summary: in vivo
- study-conditions: male, cynomolgus monkey, sc, 15 mg/kg/day, Concentration (ng/mL), Cornea (individual animals)
outcome-measure: concentration at 42 day

Consider `Cc1cc(O)cc(C)c1C[C@H](NC(=O)[C@H](N)CCCNC(=N)N)C(=O)N[C@@H](CCCCN)c1nc(Cc2ccccc2)no1.Cl.Cl.Cl` . Its measured concentration at 42 day is 1.73 ng/mL

###

- protocol-summary: in vivo
- study-conditions: female, cynomolgus monkey, sc, 2 mg/kg/day, Average Concentration, Retina
outcome-measure: concentration at 29 day
Provide the measurement as a number trailed by its unit.

The compound listed as `Cc1cc(O)cc(C)c1C[C@H](NC(=O)[C@H](N)CCCNC(=N)N)C(=O)N[C@@H](CCCCN)c1nc(Cc2ccccc2)no1.Cl.Cl.Cl` shows concentration at 29 day equal to 7390 ng/g

###

- protocol-summary: in vivo
- study-conditions: female, cynomolgus monkey, sc, 5 mg/kg/day, Average Concentration, Vitreous Humor
outcome-measure: concentration at 29 day (ng/mL)
Give your result in ng/mL as a bare value.

Field concentration at 29 day (entry Cc1cc(O)cc(C)c1C[C@H](NC(=O)[C@H](N)CCCNC(=N)N)C(=O)N[C@@H](CCCCN)c1nc(Cc2ccccc2)no1.Cl.Cl.Cl [Formula IIa] ) reads 23.3

###

- protocol-summary: in vivo
- study-conditions: female, cynomolgus monkey, sc, 2 mg/kg, Average Conc.
outcome-measure: concentration at 29 study day (ng/g)
API: value field is a number in ng/g; no unit string.

Value of concentration at 29 study day reported for the molecule `Cc1cc(O)cc(C)c1C[C@H](NC(=O)[C@H](N)CCCNC(=N)N)C(=O)N[C@@H](CCCCN)c1nc(Cc2ccccc2)no1.Cl.Cl.Cl` is 17500

###

- protocol-summary: in vivo
- study-conditions: male, cynomolgus monkey, sc, 15 mg/kg/day, Average Concentration, Cornea
outcome-measure: concentration at 29 day (ng/g)
Use ng/g as the unit, but write only the number.

The molecule identified as `Cc1cc(O)cc(C)c1C[C@H](NC(=O)[C@H](N)CCCNC(=N)N)C(=O)N[C@@H](CCCCN)c1nc(Cc2ccccc2)no1.Cl.Cl.Cl` registered its concentration at 29 day at 195

###

- protocol-summary: in vivo
- study-conditions: female, cynomolgus monkey, sc, 2 mg/kg/day, Average Concentration, Sclera
outcome-measure: concentration at 29 day (ng/g)
Unit ng/g implied. Number only.

Cc1cc(O)cc(C)c1C[C@H](NC(=O)[C@H](N)CCCNC(=N)N)C(=O)N[C@@H](CCCCN)c1nc(Cc2ccccc2)no1.Cl.Cl.Cl [Formula IIa] has a reported concentration at 29 day of 446

###

- protocol-summary: in vivo
- study-conditions: male, cynomolgus monkey, sc, 5 mg/kg, Average Conc.
outcome-measure: concentration at 29 study day (ng/g)
Quick reminder: number only, in ng/g, skip the unit.

Lab note: measured concentration at 29 study day of Cc1cc(O)cc(C)c1C[C@H](NC(=O)[C@H](N)CCCNC(=N)N)C(=O)N[C@@H](CCCCN)c1nc(Cc2ccccc2)no1.Cl.Cl.Cl [Formula IIa] was 26300

###

- protocol-summary: in vivo
- study-conditions: male, cynomolgus monkey, sc, 2 mg/kg/day, Average Concentration, Aqueous Humor
outcome-measure: concentration at 29 day (ng/mL)
A number alone suffices; assume ng/mL.

The compound listed as `Cc1cc(O)cc(C)c1C[C@H](NC(=O)[C@H](N)CCCNC(=N)N)C(=O)N[C@@H](CCCCN)c1nc(Cc2ccccc2)no1.Cl.Cl.Cl` has a reported concentration at 29 day of 2.31

###

- protocol-summary: in vivo
- study-conditions: male, cynomolgus monkey, sc, 15 mg/kg/day, Average Concentration, Conjunctiva
outcome-measure: concentration at 42 day
Show the value, then the unit it is measured in.

Reported concentration at 42 day of `Cc1cc(O)cc(C)c1C[C@H](NC(=O)[C@H](N)CCCNC(=N)N)C(=O)N[C@@H](CCCCN)c1nc(Cc2ccccc2)no1.Cl.Cl.Cl` : 4380 ng/g

###

- protocol-summary: in vivo
- study-conditions: male, cynomolgus monkey, sc, 5 mg/kg/day, Average Concentration, Vitreous Humor
outcome-measure: concentration at 29 day
Please format your answer as a value with the unit trailing.

Please fill in: concentration at 29 day reported for `Cc1cc(O)cc(C)c1C[C@H](NC(=O)[C@H](N)CCCNC(=N)N)C(=O)N[C@@H](CCCCN)c1nc(Cc2ccccc2)no1.Cl.Cl.Cl` = 13.3 ng/mL

###

- protocol-summary: in vivo
- study-conditions: female, cynomolgus monkey, sc, 5 mg/kg/day, Average Concentration, Cornea
outcome-measure: concentration at 29 day (ng/g)
Write it as a number; the unit ng/g goes unstated.

# concentration at 29 day (compound: `Cc1cc(O)cc(C)c1C[C@H](NC(=O)[C@H](N)CCCNC(=N)N)C(=O)N[C@@H](CCCCN)c1nc(Cc2ccccc2)no1.Cl.Cl.Cl` ) is 56.1

###

- protocol-summary: in vivo
- study-conditions: male, cynomolgus monkey, sc, 5 mg/kg/day, Average Concentration, Cornea
outcome-measure: concentration at 29 day (ng/g)
Give the value in ng/g but do not write ng/g after it.

`Cc1cc(O)cc(C)c1C[C@H](NC(=O)[C@H](N)CCCNC(=N)N)C(=O)N[C@@H](CCCCN)c1nc(Cc2ccccc2)no1.Cl.Cl.Cl` yielded concentration at 29 day of 64

###

- protocol-summary: in vivo
- study-conditions: female, cynomolgus monkey, sc, 2 mg/kg/day, Average Concentration, Conjunctiva
outcome-measure: concentration at 29 day (ng/g)
Give your result in ng/g as a bare value.

`Cc1cc(O)cc(C)c1C[C@H](NC(=O)[C@H](N)CCCNC(=N)N)C(=O)N[C@@H](CCCCN)c1nc(Cc2ccccc2)no1.Cl.Cl.Cl` has a reported concentration at 29 day of 835

###

- protocol-summary: in vivo
- study-conditions: male, cynomolgus monkey, sc, 2 mg/kg/day, Average Concentration, Sclera
outcome-measure: concentration at 29 day (ng/g)
// note: answer is a bare numeric in ng/g

Per the records, this compound ( `Cc1cc(O)cc(C)c1C[C@H](NC(=O)[C@H](N)CCCNC(=N)N)C(=O)N[C@@H](CCCCN)c1nc(Cc2ccccc2)no1.Cl.Cl.Cl` ) has concentration at 29 day equal to 701

###

- protocol-summary: in vivo
- study-conditions: female, cynomolgus monkey, sc, 2 mg/kg/day, Average Concentration, Vitreous Humor
- Procedure: Male and female cynomolgus monkeys were divided into four groups (Groups 1 to 4). Groups 1 and 4 consisted of five males and five females each and Groups 2 and 3 consisted of three males and three females each. Animals were dosed via SC injection once daily for 28 consecutive days. […] At termination, gross observations and organ weights were recorded, and eye/optic nerve tissue samples were collected for microscopic evaluation and biodistribution assays. […]
outcome-measure: concentration at 29 day (ng/mL)
The answer is to be given in ng/mL; state only the numeric part.

// field: concentration at 29 day; key: `Cc1cc(O)cc(C)c1C[C@H](NC(=O)[C@H](N)CCCNC(=N)N)C(=O)N[C@@H](CCCCN)c1nc(Cc2ccccc2)no1.Cl.Cl.Cl` ; value = 13.1

###

- protocol-summary: in vivo
- study-conditions: female, cynomolgus monkey, sc, 2 mg/kg/day, Average Concentration, Cornea
outcome-measure: concentration at 29 day
Report field: quantity (unit follows the number).

Measured concentration at 29 day of `Cc1cc(O)cc(C)c1C[C@H](NC(=O)[C@H](N)CCCNC(=N)N)C(=O)N[C@@H](CCCCN)c1nc(Cc2ccccc2)no1.Cl.Cl.Cl` : 27.2 ng/g

###

- protocol-summary: in vivo
- study-conditions: male, cynomolgus monkey, sc, 5 mg/kg/day, Average Concentration, Choroid
outcome-measure: concentration at 29 day (ng/g)
Give a bare numeral; the unit ng/g is implied.

Input `Cc1cc(O)cc(C)c1C[C@H](NC(=O)[C@H](N)CCCNC(=N)N)C(=O)N[C@@H](CCCCN)c1nc(Cc2ccccc2)no1.Cl.Cl.Cl` . Output concentration at 29 day: 4060

###

- protocol-summary: in vivo
- study-conditions: male, cynomolgus monkey, sc, 15 mg/kg/day, Average Concentration, Optic Nerve
outcome-measure: concentration at 42 day (ng/g)
Just the number please, in ng/g, no unit attached.

The compound listed as `Cc1cc(O)cc(C)c1C[C@H](NC(=O)[C@H](N)CCCNC(=N)N)C(=O)N[C@@H](CCCCN)c1nc(Cc2ccccc2)no1.Cl.Cl.Cl` has a reported concentration at 42 day of 91500
